Data origin: ChEMBL document CHEMBL2086239

# Test system: Hs-578T
# PROTOCOL NOTES: Growth inhibition of human Hs578T cells after 48 hrs by SRB assay
# Assay type: functional
# reported GI50; entries follow
EXPERIMENTAL ENDPOINT: GI50

compound="COc1ccc(/C=C\\c2cc(OC)c(OC)c(OC)c2)cc1O [COMBRETASTATIN A4]" experimental_endpoint=GI50 value_measured="0.001 µM"
compound=COc1ccc(/C=C\c2cc(OC)c(OC)c(OC)c2)cc1OCC(=O)Nc1nc2ccc(OC(F)(F)F)cc2s1 experimental_endpoint=GI50 value_measured="4.33 µM"
compound=COc1ccc(/C=C\c2cc(OC)c(OC)c(OC)c2)cc1OCC(=O)Nc1nc2ccc(C(F)(F)F)cc2s1 experimental_endpoint=GI50 value_measured="4.18 µM"
compound=COc1ccc2nc(NC(=O)COc3cc(/C=C\c4cc(OC)c(OC)c(OC)c4)ccc3OC)sc2c1 experimental_endpoint=GI50 value_measured="4.15 µM"
compound=COc1ccc(/C=C\c2cc(OC)c(OC)c(OC)c2)cc1OCC(=O)Nc1ccc2nc(C)sc2c1 experimental_endpoint=GI50 value_measured="4.32 µM"

###

# Test system: UO-31
# PROTOCOL NOTES: Growth inhibition of human UO31 cells after 48 hrs by SRB assay
# Assay type: functional
# TEST CONDITIONS: UO-31, 48 h
As shown below, each of these compounds has a reported log10 of GI50 value.
EXPERIMENTAL ENDPOINT: log10 of GI50 (log10 of the value in nM)

compound=COc1ccc(/C=C\c2cc(OC)c(OC)c(OC)c2)cc1OCC(=O)Nc1ccc2nc(C)sc2c1 value_measured=3.38
compound=COc1ccc(/C=C\c2cc(OC)c(OC)c(OC)c2)cc1OCC(=O)Nc1nc2ccc(F)cc2s1 value_measured=3.41
compound=COc1ccc(/C=C\c2cc(OC)c(OC)c(OC)c2)cc1OCC(=O)Nc1nc2ccc(OC(F)(F)F)cc2s1 value_measured=3.64
compound=COc1ccc(/C=C\c2cc(OC)c(OC)c(OC)c2)cc1OCC(=O)Nc1nc2ccc(C(F)(F)F)cc2s1 value_measured=3.56
compound="COc1ccc(/C=C\\c2cc(OC)c(OC)c(OC)c2)cc1O [COMBRETASTATIN A4]" value_measured=1.28
compound=COc1ccc2nc(NC(=O)COc3cc(/C=C\c4cc(OC)c(OC)c(OC)c4)ccc3OC)sc2c1 value_measured=3.63
compound=COc1ccc(/C=C\c2cc(OC)c(OC)c(OC)c2)cc1OCC(=O)Nc1nc2ccccc2s1 value_measured=2.76

###

# System: UACC-62
# PROTOCOL NOTES: Growth inhibition of human UACC62 cells after 48 hrs by SRB assay
# Assay type: functional
# TEST CONDITIONS: UACC-62, 48 h
EXPERIMENTAL ENDPOINT: log10 GI50 (log10 of the value in µM)

smiles_entry=COc1ccc(/C=C\c2cc(OC)c(OC)c(OC)c2)cc1OCC(=O)Nc1nc2ccccc2s1 experimental_endpoint="log10 GI50" value_measured=-1.20
smiles_entry=COc1ccc(/C=C\c2cc(OC)c(OC)c(OC)c2)cc1OCC(=O)Nc1ccc2nc(C)sc2c1 experimental_endpoint="log10 GI50" value_measured=0.34
smiles_entry=COc1ccc(/C=C\c2cc(OC)c(OC)c(OC)c2)cc1OCC(=O)Nc1nc2ccc(OC(F)(F)F)cc2s1 experimental_endpoint="log10 GI50" value_measured=0.71
smiles_entry=COc1ccc2nc(NC(=O)COc3cc(/C=C\c4cc(OC)c(OC)c(OC)c4)ccc3OC)sc2c1 experimental_endpoint="log10 GI50" value_measured=0.77
smiles_entry=COc1ccc(/C=C\c2cc(OC)c(OC)c(OC)c2)cc1OCC(=O)Nc1nc2ccc(C(F)(F)F)cc2s1 experimental_endpoint="log10 GI50" value_measured=0.59
smiles_entry=COc1ccc(/C=C\c2cc(OC)c(OC)c(OC)c2)cc1OCC(=O)Nc1nc2ccc(F)cc2s1 experimental_endpoint="log10 GI50" value_measured=0.61
smiles_entry=COc1ccc(/C=C\c2cc(OC)c(OC)c(OC)c2)cc1O experimental_endpoint="log10 GI50" value_measured=-2.30
